# Tested on: T47D cells
# assay-explanation: Cell-based assay: anti-proliferative activity, Cell Counting Kit-8, 72 hours (T47D)
# test-context: Homo sapiens, T47D, 72 h
Structures can show the parent of a compound that is named as a salt.
endpoint-label: IC50 (µM)
The answer is to be given in µM; state only the numeric part.

Data request: Could you tell me which IC50 is on file for CC(=O)c1cnc2ccc(-c3cc(Cl)c(O)c(Cl)c3)cc2c1N[C@H]1CC[C@H](CN2CCC[C@H]2CO)CC1 [Example 792] ?
Data returned: 0.079

Data request: Could you tell me which IC50 is on file for COc1cc(-c2ccc3ncc(C(=O)C4CC4)c(NC4CCC(N5CCC(OC)C5)CC4)c3c2)cc(Cl)c1O (stereo not shown) [Example 687] ?
Data returned: 0.63

Data request: Could you tell me which IC50 is on file for O=C(c1cnc2ccc(-c3cc(F)c(O)c(Cl)c3)cc2c1N[C@H]1CC[C@H](CN2CCCC2)CC1)C1CC1 [Example 587] ?
Data returned: 0.11

Data request: Could you tell me which IC50 is on file for CN(C)C1CCN(c2ccc(Nc3c(S(C)(=O)=O)cnc4ccc(-c5cc(F)c(O)c(Cl)c5)cc34)cn2)C1 (stereo not shown) [Example 889, hydrochloride] ?
Data returned: 1.5

Data request: Could you tell me which IC50 is on file for CC(=O)c1cnc2ccc(-c3cc(Cl)c(O)c(Cl)c3)cc2c1Nc1ccc(OCCN(C)C)nc1 [Example 852, hydrochloride] ?
Data returned: 0.16

Data request: Could you tell me which IC50 is on file for COc1cc(-c2ccc3ncc(C(=O)C4CC4)c(N4CCN(CCN5CCCC5)CC4)c3c2)cc(Cl)c1O [Example 394] ?
Data returned: 0.4

Data request: Could you tell me which IC50 is on file for CC(C)C(=O)c1cnc2ccc(-c3cc(F)c(O)c(Cl)c3)cc2c1N[C@H]1CC[C@H](CN(C)C)CC1 [Example 620] ?
Data returned: 0.16

---

# Test system: HT-1197 cells
# assay-explanation: Cell-based assay: anti-proliferative activity, Cell Counting Kit-8, 72 hours (HT-1197, negative control without MELK expression)
# test-context: Homo sapiens, HT1197, 72 h, HT1197 cells (negative control, no MELK expression), 72 hours
Structures can show the parent of a compound that is named as a salt.
// returns label 0 unless IC50 is strictly below 2 µM, in which case label 1

Data request: Quick check: does CCN(CC)C[C@H]1CC[C@H](Nc2c(C(C)=O)cnc3ccc(-c4cc(F)c(O)c(Cl)c4)cc23)CC1 [Example 794] have IC50 under 2 µM?
Data returned: label 1

Data request: Quick check: does COc1cc(-c2ccc3ncc(C(=O)C4CC4)c(Nc4ccc(NC5CCNC5)nc4)c3c2)cc(Cl)c1O (stereo not shown) [Example 665] have IC50 under 2 µM?
Data returned: label 0

Data request: Quick check: does C[S+]([O-])c1cnc2ccc(-c3ccc(O)c(Cl)c3)cc2c1N[C@H]1CC[C@H](N)CC1 (stereo partly shown) [Example 499] have IC50 under 2 µM?
Data returned: label 0

Data request: Quick check: does CC(=O)c1cnc2ccc(-c3cc(F)c(O)c(Cl)c3)cc2c1N[C@H]1CC[C@H](CN2CCC(N)C2)CC1 (stereo partly shown) [Example 786, hydrochloride] have IC50 under 2 µM?
Data returned: label 0

Data request: Quick check: does COc1cc(-c2ccc3ncc(S(C)(=O)=O)c(Nc4ccc(CN(C)C)cc4)c3c2)cc(Cl)c1O [Example 410] have IC50 under 2 µM?
Data returned: label 0

Data request: Quick check: does NCCOc1ccc(Nc2c(C(=O)C3CC3)cnc3ccc(-c4cc(F)c(O)c(Cl)c4)cc23)cn1 [Example 724] have IC50 under 2 µM?
Data returned: label 0

Data request: Quick check: does CCC(=O)c1cnc2ccc(-c3cc(Cl)c(O)c(Cl)c3)cc2c1Nc1ccc(N2CCCC(N)C2)nc1 (stereo not shown) [Example 824] have IC50 under 2 µM?
Data returned: label 1

Data request: Quick check: does CN(CCO)C[C@H]1CC[C@H](Nc2c(C(=O)C3CC3)cnc3ccc(-c4cc(F)c(O)c(Cl)c4)cc23)CC1 [Example 632] have IC50 under 2 µM?
Data returned: label 1

Data request: Quick check: does COc1cc(-c2ccc3ncc(C(C)=O)c(Nc4ccc(N5CCCC(N)C5)nc4)c3c2)cc(Cl)c1O (stereo not shown) [Example 688] have IC50 under 2 µM?
Data returned: label 1

Data request: Quick check: does CN(C)Cc1ccc(Nc2c(C#N)cnc3ccc(-c4cc(F)c(O)c(Cl)c4)cc23)cc1 [Example 432] have IC50 under 2 µM?
Data returned: label 0

Data request: Quick check: does CC(=O)c1cnc2ccc(-c3cc(F)c(O)c(Cl)c3)cc2c1N[C@H]1CCC[C@@H](CN2CCN(C)CC2)C1 [Example 832, hydrochloride] have IC50 under 2 µM?
Data returned: label 1

Data request: Quick check: does CCC(=O)c1cnc2ccc(-c3cc(F)c(O)c(Cl)c3)cc2c1Nc1ccc(N2CCN(C)CC2)nc1 [Example 736] have IC50 under 2 µM?
Data returned: label 0

Data request: Quick check: does CN(C)Cc1ccc(Nc2c(S(C)(=O)=O)cnc3ccc(-c4cc(Cl)c(O)c(Cl)c4)cc23)cc1 [Example 400] have IC50 under 2 µM?
Data returned: label 1

Data request: Quick check: does CC(=O)c1cnc2ccc(-c3cc(Cl)c(O)c(Cl)c3)cc2c1N[C@H]1CC[C@H](CCN(C)C)CC1 [Example 739] have IC50 under 2 µM?
Data returned: label 0

Data request: Quick check: does COc1cc(-c2ccc3ncc(C(=O)C4CC4)c(Nc4ccc(N5CCC[C@@H](N)C5)nc4)c3c2)cc(Cl)c1O [Example 649] have IC50 under 2 µM?
Data returned: label 1

Data request: Quick check: does CN(C)Cc1ccc(Nc2c(C(=O)C3CC3)cnc3ccc(-c4cc(Cl)c(O)c(Cl)c4)cc23)nc1 [Example 417] have IC50 under 2 µM?
Data returned: label 0

Data request: Quick check: does CN1CCN(c2ccc(Nc3c(C(=O)C4CC4)cnc4ccc(-c5cc(F)c(O)c(F)c5)cc34)cn2)CC1 [Example 778] have IC50 under 2 µM?
Data returned: label 0

Data request: Quick check: does CC(=O)c1cnc2ccc(-c3cc(F)c(O)c(Cl)c3)cc2c1N1CCN(C(=O)CN(C)C)CC1 [Example 484] have IC50 under 2 µM?
Data returned: label 0

Data request: Quick check: does CN(C)Cc1ccc(Nc2c(S(C)(=O)=O)cnc3ccc(-c4cc(Cl)c(O)c(Cl)c4)cc23)cc1 [Example 401, hydrochloride] have IC50 under 2 µM?
Data returned: label 0

Data request: Quick check: does CNC1CCN(c2ccc(Nc3c(C(=O)C4CC4)cnc4ccc(-c5cc(F)c(O)c(Cl)c5)cc34)cn2)C1 (stereo not shown) [Example 789, trihydrochloride] have IC50 under 2 µM?
Data returned: label 1

Data request: Quick check: does COc1cc(-c2ccc3ncc(C(=O)C4CC4)c(Nc4cnc(N5CCNCC5)nc4)c3c2)cc(Cl)c1O [Example 503] have IC50 under 2 µM?
Data returned: label 1

Data request: Quick check: does CCC(=O)c1cnc2ccc(-c3cc(Cl)c(O)c(Cl)c3)cc2c1Nc1ccc(CN(C)C)cc1 [Example 771] have IC50 under 2 µM?
Data returned: label 1

Data request: Quick check: does CN(C)CC(O)c1ccc(Nc2c(C(=O)C3CC3)cnc3ccc(-c4cc(F)c(O)c(Cl)c4)cc23)cc1 (stereo not shown) [Example 707] have IC50 under 2 µM?
Data returned: label 0

Data request: Quick check: does COc1cc(-c2ccc3ncc(C(C)=O)c(N[C@H]4CC[C@H](CN5CCCC(N)C5)CC4)c3c2)cc(Cl)c1O (stereo partly shown) [Example 809, hydrochloride] have IC50 under 2 µM?
Data returned: label 0

Data request: Quick check: does N[C@H]1CC[C@H](n2cc(Nc3c(C(=O)C4CC4)cnc4ccc(-c5cc(Cl)c(O)c(Cl)c5)cc34)cn2)CC1 [Example 706, dihydrochloride] have IC50 under 2 µM?
Data returned: label 0

Data request: Quick check: does CC(=O)c1cnc2ccc(-c3cc(F)c(O)c(Cl)c3)cc2c1Nc1cnn(C2CCN(C)CC2)c1 [Example 805, hydrochloride] have IC50 under 2 µM?
Data returned: label 0

Data request: Quick check: does COC1CCN(C2CCC(Nc3c(C(=O)C4CC4)cnc4ccc(-c5cc(Cl)c(O)c(Cl)c5)cc34)CC2)C1 (stereo not shown) [Example 661] have IC50 under 2 µM?
Data returned: label 1

Data request: Quick check: does CS(=O)(=O)c1cnc2ccc(-c3ccc(O)c(Cl)c3)cc2c1N1CCC(CN2CCCC2)CC1 [Example 408] have IC50 under 2 µM?
Data returned: label 0
